Each entry below lists one item and its recorded DC50 value.
- Measured on: BRAF G469A (Homo sapiens, UniProt P15056, G469A)
- Construct: Horizon Discovery (HCT-116 BRAF−/− cells); host or cells: HCT-116 BRAF−/− cells, clone 34, lentiviral transduction
- Sequence (P15056 whole entry G469A): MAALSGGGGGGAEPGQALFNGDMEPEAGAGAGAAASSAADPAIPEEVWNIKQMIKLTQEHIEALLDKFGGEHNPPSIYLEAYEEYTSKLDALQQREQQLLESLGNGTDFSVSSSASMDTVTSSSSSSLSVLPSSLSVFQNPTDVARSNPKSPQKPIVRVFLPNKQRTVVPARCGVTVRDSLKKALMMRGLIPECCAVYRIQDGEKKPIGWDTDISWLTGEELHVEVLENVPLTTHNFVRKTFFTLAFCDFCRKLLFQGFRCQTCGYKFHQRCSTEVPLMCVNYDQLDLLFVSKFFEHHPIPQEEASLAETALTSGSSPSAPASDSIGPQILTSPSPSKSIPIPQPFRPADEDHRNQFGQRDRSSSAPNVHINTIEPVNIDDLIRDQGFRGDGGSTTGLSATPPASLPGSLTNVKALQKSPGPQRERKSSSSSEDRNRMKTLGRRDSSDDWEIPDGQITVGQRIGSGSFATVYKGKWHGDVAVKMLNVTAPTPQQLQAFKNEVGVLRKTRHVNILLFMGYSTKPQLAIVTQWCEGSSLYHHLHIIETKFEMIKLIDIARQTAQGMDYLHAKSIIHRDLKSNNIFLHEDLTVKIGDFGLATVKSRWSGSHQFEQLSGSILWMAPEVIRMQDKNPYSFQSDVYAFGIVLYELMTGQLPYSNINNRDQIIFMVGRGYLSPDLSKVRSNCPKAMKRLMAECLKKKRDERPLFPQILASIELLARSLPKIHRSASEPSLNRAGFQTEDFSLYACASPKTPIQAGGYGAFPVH
- Test details: BRAF HiBiT degradation assay, C-terminal HiBiT-tagged BRAF G469A overexpressed in HCT-116 BRAF−/− cells (clone 34), Nano-Glo HiBiT Lytic assay
- Format: cell-based
- Condition set: Class 2; BRAF G469A; DC50 at 50%: fitted conc. at Y=50

Examples with answers:
Request: Consider the compound CCCS(=O)(=O)Nc1cccc(-c2nc(C(C)(C)C)sc2-c2ccnc(Nc3cnn(CC4CCN(CC5CCN(c6ccc7c(=O)n(C8CCC(=O)NC8=O)ccc7c6)CC5)CC4)c3)n2)c1F (racemic) [Compound 83] tested on BRAF G469A (Homo sapiens, UniProt P15056, G469A); state its DC50.
Response: 50 to 500 nM

Request: Consider the compound CCCS(=O)(=O)Nc1cccc(-c2cn(C3CCN(C(=O)C4CCN(CC5CCN(c6ccc(C7CCC(=O)NC7=O)cn6)CC5)CC4)CC3)nc2-c2ccncc2)c1F (racemic) [Compound 6] tested on BRAF G469A (Homo sapiens, UniProt P15056, G469A); state its DC50.
Response: > 500 nM

Now examine the next entry.
Request: Consider the compound CCCS(=O)(=O)Nc1cccc(-c2nc(C(C)(C)C)sc2-c2ccnc(Nc3ccc(N4CCN(CC5CCN(c6ccc([C@H]7CCC(=O)NC7=O)cc6)CC5)CC4)c(F)c3)n2)c1F [Compound 87] tested on BRAF G469A (Homo sapiens, UniProt P15056, G469A); state its DC50.
Response: > 500 nM

Every entry's value here was drawn from patent US20260317324A1.
